- Test system: PDGFR
- assay: Rat A10 cell proliferation assay
- Type: cell-based
- measurement_setup: Table 1; Rat A10 cells, recombinant rat PDGF-BB, CellTiter-Glo after 68 hours
- Description: Compounds of Formula (I) provided herein were assayed to measure their capacity to inhibit c-kit and PDGFR kinases using the appropriate assay described below: c-Kit inhibition was evaluated using the Mo7e cell proliferation assay, and PDGFR inhibition was evaluated using the Rat A10 cell proliferation assay and the Human TG/HA-VSMC cell proliferation assay. Rat A10 cells (ATCC) were resuspended in DMEM supplemented with 1% FBS and 10 ng/mL recombinant rat PDGF-BB at 20,000 cells/mL. […]
property_measured: pIC50
Scale for pIC50: -log10 of concentration given in mol/L; no unit attached.

Lookup: Recorded pIC50 for CCC[C@@H](CO)NC(=O)c1ccc(F)c(NC(=O)c2cnc3ccccn23)c1 , please?
Found: 6.94

Lookup: Recorded pIC50 for O=C(N[C@@H]1CCCC[C@@H]1O)c1ccc(F)c(NC(=O)c2cnc3ccccn23)c1 , please?
Found: 6.70

Lookup: Recorded pIC50 for COC[C@H](NC(=O)c1ccc(F)c(NC(=O)c2cnc3cc(C)ccn23)c1)[C@@H](O)c1ccccc1 , please?
Found: 8.10

Lookup: Recorded pIC50 for COC[C@H](NC(=O)c1ccc(F)c(NC(=O)c2cnc3ccccn23)c1)[C@@H](O)c1ccccc1 [F118] , please?
Found: 7.39

Lookup: Recorded pIC50 for Cc1ccn2c(C(=O)Nc3cc(C(=O)N[C@@H]4c5ccccc5C[C@@H]4O)ccc3F)cnc2c1 , please?
Found: 7.31

Lookup: Recorded pIC50 for Cc1ccc(C(=O)N[C@@H]2c3ccccc3C[C@H]2O)cc1NC(=O)c1cnc2ccccn12 , please?
Found: 7.55

* * *

- System: PDGFR
- assay: Rat A10 cell proliferation assay
- Type: cell-based
- measurement_setup: Table 2; Rat A10 cells, recombinant rat PDGF-BB, CellTiter-Glo after 68 hours
property_measured: IC50 (nM)
Report as a plain number; the unit nM is understood.

Lookup: Recorded IC50 for Cc1ccc2ncc(C(=O)Nc3cc(C(=O)N[C@H]4c5ccccc5C[C@H]4O)ccc3F)n2c1 [F36] , please?
Found: 234

Lookup: Recorded IC50 for O=C(N[C@H]1c2ccccc2C[C@H]1O)c1ccc(F)c(NC(=O)c2cnc3ccc(COCC(F)(F)F)cn23)c1 [F70] , please?
Found: 2090

Lookup: Recorded IC50 for Cc1ccc2ncc(C(=O)Nc3cc(C(=O)N[C@@H]4c5ccccc5C[C@@H]4O)c(Cl)cc3F)n2c1 [F85] , please?
Found: 4020

Lookup: Recorded IC50 for O=C(NCC1(O)CCC1)c1cccc(NC(=O)c2cnc3ccccn23)c1 [F73] , please?
Found: 3270

* * *

- Tested on: PDGFR
- assay: Rat A10 cell proliferation assay
- Format: cell-based
- measurement_setup: Table 2; Rat A10 cells, recombinant rat PDGF-BB, CellTiter-Glo after 68 hours
pIC50: −log10 of the molar value.
Please mark 1 (yes) if the recorded pIC50 is equal to or greater than 6, and 0 (no) if it falls below.

Lookup: Is it the case that O=C(N[C@H](CO)[C@H](O)c1ccccc1)c1ccc(F)c(NC(=O)c2cnc3ccccn23)c1 has pIC50 reaching or exceeding 6?
Found: 1 (yes)

Lookup: Is it the case that O=C(NC(CO)c1ccccc1)c1cccc(NC(=O)c2cnc3ccccn23)c1 (stereo in doubt) [F44] has pIC50 reaching or exceeding 6?
Found: 1 (yes)

Lookup: Is it the case that CC(C)[C@H](CO)NC(=O)c1cccc(NC(=O)c2cnc3ccccn23)c1 has pIC50 reaching or exceeding 6?
Found: 0 (no)

Lookup: Is it the case that O=C(NCC1(O)CCCC1)c1cccc(NC(=O)c2cnc3ccccn23)c1 has pIC50 reaching or exceeding 6?
Found: 0 (no)

Lookup: Is it the case that CC[C@@H](CO)NC(=O)c1cccc(NC(=O)c2cnc3ccccn23)c1 has pIC50 reaching or exceeding 6?
Found: 0 (no)

Lookup: Is it the case that O=C(N[C@H]1c2ccccc2C[C@H]1O)c1ccc(F)c(NC(=O)c2cnc3cc(N4CCOCC4)ccn23)c1 has pIC50 reaching or exceeding 6?
Found: 0 (no)

Lookup: Is it the case that CCC[C@@H](CO)NC(=O)c1ccc(F)c(NC(=O)c2cnc3ccccn23)c1 has pIC50 reaching or exceeding 6?
Found: 1 (yes)

Lookup: Is it the case that CCC[C@@H](CO)NC(=O)c1cccc(NC(=O)c2cnc3ccccn23)c1 has pIC50 reaching or exceeding 6?
Found: 1 (yes)

Lookup: Is it the case that O=C(N[C@@H]1CCC[C@H]1O)c1ccc(F)c(NC(=O)c2cnc3ccccn23)c1 has pIC50 reaching or exceeding 6?
Found: 0 (no)

Lookup: Is it the case that O=C(N[C@@H]1c2ccccc2C[C@@H]1O)c1ccc(F)c(NC(=O)c2cnc3cc(C(F)(F)F)ccn23)c1 (stereo in doubt) has pIC50 reaching or exceeding 6?
Found: 1 (yes)

Lookup: Is it the case that O=C(N[C@H]1CCCC[C@H]1CO)c1ccc(F)c(NC(=O)c2cnc3ccccn23)c1 has pIC50 reaching or exceeding 6?
Found: 1 (yes)

Lookup: Is it the case that C[C@H](NC(=O)c1ccc(F)c(NC(=O)c2cnc3ccccn23)c1)[C@@H](O)c1ccccc1 has pIC50 reaching or exceeding 6?
Found: 1 (yes)

Lookup: Is it the case that O=C(NC1Cc2ccccc2C1O)c1ccc(F)c(NC(=O)c2cnc3ccccn23)c1 (centres unmarked) has pIC50 reaching or exceeding 6?
Found: 1 (yes)

Lookup: Is it the case that Cc1ccc2ncc(C(=O)Nc3cc(C(=O)N[C@@H]4c5ccccc5C[C@@H]4O)c(F)cc3F)n2c1 has pIC50 reaching or exceeding 6?
Found: 0 (no)

Lookup: Is it the case that Cc1ccc2ncc(C(=O)Nc3cc(C(=O)N[C@@H]4c5ccc(Cl)cc5C[C@@H]4O)ccc3F)n2c1 [F84] has pIC50 reaching or exceeding 6?
Found: 1 (yes)
